Let's go through some Ki measurements on Cyclin-dependent kinase 2 (Homo sapiens) together.
Measure: Ki

Cpd smiles: Cc1nc(C)c(-c2ccnc(Nc3ccccc3Cl)n2)s1
Result: > 20000 nM
--
Cpd smiles: Cc1nc(C)c(-c2ccnc(Nc3cccc(F)c3)n2)s1
Result: 100 nM
--
Cpd smiles: CNc1nccc(-c2sc(C)nc2C)n1
Result: > 20000 nM
--
Cpd smiles: Cc1nc(C)c(-c2ccnc(Nc3ccc([N+](=O)[O-])cc3)n2)s1
Result: 4100 nM
--
Cpd smiles: Cc1nc(C)c(-c2ccnc(Nc3cccc(Cl)c3)n2)s1
Result: 670 nM
--
Cpd smiles: Cc1nc(C)c(-c2ccnc(Nc3cccc(N)c3)n2)s1
Result: 400 nM
--
Cpd smiles: Cc1nc(N(C)C)sc1-c1ccnc(Nc2cccc([N+](=O)[O-])c2)n1
Result: 60 nM
--
Cpd smiles: Cc1nc(C)c(-c2ccnc(Nc3ccccc3F)n2)s1
Result: 1200 nM
--
Cpd smiles: CNc1nc(C)c(-c2ccnc(Nc3cccc([N+](=O)[O-])c3)n2)s1
Result: 800 nM
